# Assay details: Naringenin concentration in milk of breastfeeding mothers on naringenin-restricted diet, before and after 250 ml red grapefruit juice (HPLC after deconjugation)
# Type: in vivo
# Study conditions: female, human, in vivo, Mean naringenin concentration in human milk
Quantity: concentration at 0 h
The number alone won't do; follow it with the unit.

Input: concentration at 0 h for O=C1C[C@@H](c2ccc(O)cc2)Oc2cc(O)cc(O)c21 ?
Output: 674 nM

----------
# Assay details: Naringenin concentration in milk of breastfeeding mothers on naringenin-restricted diet, before and after 250 ml red grapefruit juice (HPLC after deconjugation)
# Format: in vivo
# Study conditions: female, human, in vivo, Mean naringenin concentration in human milk
Quantity: concentration at 36 h (nM)
The response must be a number in nM with no trailing unit.

Input: concentration at 36 h for O=C1C[C@@H](c2ccc(O)cc2)Oc2cc(O)cc(O)c21 [naringenin] ?
Output: 702

----------
# Assay details: Naringenin concentration in milk of breastfeeding mothers on naringenin-restricted diet, before and after 250 ml red grapefruit juice (HPLC after deconjugation)
# Format: in vivo
# Study conditions: female, human, in vivo, Mean naringenin concentration in human milk
Quantity: concentration at 12 h (nM)
The response must be a number in nM with no trailing unit.

Input: concentration at 12 h for O=C1C[C@@H](c2ccc(O)cc2)Oc2cc(O)cc(O)c21 ?
Output: 869
